Numbers sourced from the supplement of paper PMC11865577.

tested on: TO-3-N3-2 (biotin conjugate); assay: pull-down binding Z-score (relative to library population); higher = stronger binding; conditions: RNA library: Library-2
Value kind: pull-down binding Z-score
Could you keep your reply to the number by itself?

| Sequence entry | pull-down binding Z-score |
| --- | --- |
| GAACCUUGCUCUUCUGGAACAUACGAGGGCAAUUC | -0.0628 |
| UGAGCAGGCCCAGAACCCAGCUCGUGCUCA [hsa-mir-6794] | -0.114 |
| ACGACGACUACUAGCGUGCCUUUGUAAGCACAAGCUGAUGAGUACGAACUUAUGUACUCAUUCGUUUCGGAAGAGACAGGUACGUUAAUAGUUAAUAGCGU | -0.333 |

Input GUUUCGGAAGAGAC . Output pull-down binding Z-score: -0.443

Input GGGAGGUAUGAUAUCGUGGUUCCU [hsa-mir-3689e] . Output pull-down binding Z-score: 0.567

Input CAGAGUCACAUGUUGACACUG . Output pull-down binding Z-score: -0.263

Input GGUGAAGGACGGGUCCAGUAGUUCGCUACUGUUGAGUAGAGUGUGAGCUCC [BabySpinach] . Output pull-down binding Z-score: 0.648

Input UGAGGUUUACUAUGGAACCUCA [hsa-mir-4465] . Output pull-down binding Z-score: -0.526

Input GAUGGUGGCUGUAUUAAUGCUAACCAAGUCAUCGUC . Output pull-down binding Z-score: 0.129

Input CUUUUGAAGAAG [SHAPE_invivo_SARS-CoV-2_Motif_195] . Output pull-down binding Z-score: -0.577

Input UUUGCCGUUAAAAGUAAUGGCA [hsa-mir-548a-2] . Output pull-down binding Z-score: -0.17
